src = ChEMBL document CHEMBL3797097

- Target System: D(3) dopamine receptor (Homo sapiens, UniProt P35462)
- Sequence (P35462 whole entry): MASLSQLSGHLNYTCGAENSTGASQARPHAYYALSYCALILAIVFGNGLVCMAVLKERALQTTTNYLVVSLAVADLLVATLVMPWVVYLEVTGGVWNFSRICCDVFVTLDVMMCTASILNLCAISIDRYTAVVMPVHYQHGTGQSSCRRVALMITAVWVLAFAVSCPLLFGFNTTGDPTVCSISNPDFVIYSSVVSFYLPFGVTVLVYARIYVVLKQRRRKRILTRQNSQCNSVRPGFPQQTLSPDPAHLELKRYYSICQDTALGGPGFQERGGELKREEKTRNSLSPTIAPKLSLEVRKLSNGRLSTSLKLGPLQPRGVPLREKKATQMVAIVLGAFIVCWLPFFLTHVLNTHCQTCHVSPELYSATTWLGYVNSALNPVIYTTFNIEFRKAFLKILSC
- Assay Name: Displacement of [3H]N-methylspiperone from human D3 receptor transfected in HEK293 cells measured after 60 mins by liquid scintillation counter
- Format: cell-based
Recorded measurements of pKi, one per entry
Note on units: pKi is unitless, being -log10 of a concentration expressed in mol/L.

Inquiry: For the compound shown here, CCCN(C)[C@@H]1Cc2cccc3[nH]c(=O)n(c23)C1 , give the reported pKi.
Reply text: 6.54

Inquiry: Similarly, CN[C@@H]1Cc2cccc3[nH]c(=O)n(c23)C1 [SUMANIROLE] ?
Reply text: 5.20

---

Recorded measurements of log10(EC50), one per entry
- Target System: D(2) dopamine receptor (Homo sapiens)
- Sequence (P14416 whole entry): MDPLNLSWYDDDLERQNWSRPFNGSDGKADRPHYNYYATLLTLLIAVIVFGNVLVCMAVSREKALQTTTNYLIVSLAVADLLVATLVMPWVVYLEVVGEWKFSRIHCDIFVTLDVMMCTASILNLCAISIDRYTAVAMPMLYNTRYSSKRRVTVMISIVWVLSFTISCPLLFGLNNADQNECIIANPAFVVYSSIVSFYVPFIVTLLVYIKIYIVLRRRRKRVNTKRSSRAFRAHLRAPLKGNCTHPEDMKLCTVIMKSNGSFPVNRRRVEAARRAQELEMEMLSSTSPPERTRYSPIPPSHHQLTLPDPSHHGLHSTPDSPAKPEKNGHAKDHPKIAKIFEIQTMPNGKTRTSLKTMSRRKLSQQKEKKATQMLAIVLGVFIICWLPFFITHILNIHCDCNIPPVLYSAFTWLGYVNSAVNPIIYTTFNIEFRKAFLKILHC
- Assay Name: Agonist activity at recombinant human D2 receptor expressing in CHOp cells assessed as receptor mediated stimulation of mitogenesis measured as [3H]thymidine incorporation after 24 hrs by scintillation spectrometry
- Type: cell-based
On a log10 scale: recorded EC50, unit µM.

Previously resolved entries follow.
CCCN[C@@H]1Cc2cccc3c2n(c(=O)n3CCC)C1 = -1.89
CCCN(C)[C@@H]1Cc2cccc3[nH]c(=O)n(c23)C1 = -1.74
CCCN(CCC)[C@@H]1Cc2cccc3c2n(c(=O)n3CCC)C1 = -1.86
N[C@@H]1Cc2cccc3[nH]c(=O)n(c23)C1 = -0.16
CN(CCCCNC(=O)c1ccc2c(c1)Cc1ccccc1-2)[C@@H]1Cc2cccc3[nH]c(=O)n(c23)C1 = -0.99

Inquiry: For the compound shown here, CCCCn1c(=O)n2c3c(cccc31)C[C@@H](NC)C2 , give the reported log10(EC50).
Reply text: -1.08

Inquiry: Similarly, CCCn1c(=O)n2c3c(cccc31)C[C@@H](NC)C2 ?
Reply text: -0.26

---

Recorded measurements of Ratio Ki, one per entry
- Species: Homo sapiens
- Assay Name: Selectivity index, ratio Ki for human D3 receptor to Ki for human D2 receptor using [3H]N-methylspiperone displacement assay
# output: bare number, no unit

CCCN(CCC)[C@@H]1Cc2cccc3c2n(c(=O)n3CCC)C1 = 0.04
CCCCn1c(=O)n2c3c(cccc31)C[C@@H](NC)C2 = 0.03

Inquiry: For the molecule shown here, CCCN[C@@H]1Cc2cccc3c2n(c(=O)n3CCC)C1 , give the reported Ratio Ki.
Reply text: 0.06

Inquiry: Similarly, CN(CCCCNC(=O)c1ccc2c(c1)Cc1ccccc1-2)[C@@H]1Cc2cccc3[nH]c(=O)n(c23)C1 ?
Reply text: 0.29

Inquiry: Similarly, N[C@@H]1Cc2cccc3[nH]c(=O)n(c23)C1 ?
Reply text: 0.98

Inquiry: Similarly, CCCN(C)[C@@H]1Cc2cccc3[nH]c(=O)n(c23)C1 ?
Reply text: 0.25

Inquiry: Similarly, CCCn1c(=O)n2c3c(cccc31)C[C@@H](NC)C2 ?
Reply text: 0.25

---

- Target System: UniProt P14416
- Assay Name: biochemical
- Assay type: cell-based, HEK293
Parameter: Ki
Report the figure along with its unit, number first.

Previously resolved entries follow.
CCCN(C)[C@@H]1Cc2cccc3[nH]c(=O)n(c23)C1 = 12.5 nM
CCCN[C@@H]1Cc2cccc3c2n(c(=O)n3CCC)C1 = 8.08 nM
CCCCn1c(=O)n2c3c(cccc31)C[C@@H](NC)C2 = 12.8 nM
CCCn1c(=O)n2c3c(cccc31)C[C@@H](NC)C2 = 13.2 nM

Moving on to the next molecule.
Inquiry: For the molecule shown here, CCCN(CCC)[C@@H]1Cc2cccc3[nH]c(=O)n(c23)C1 , give the reported Ki.
Reply text: 11.4 nM

---

- Target System: UniProt:P35462
- Assay Name: Displacement of [3H]N-methylspiperone from human D3 receptor transfected in HEK293 cells measured after 60 mins by liquid scintillation counter
- Format: cell-based
Parameter: Ki (nM)
Provide the reading as a plain figure in nM.

Previously resolved entries follow.
CCCn1c(=O)n2c3c(cccc31)C[C@@H](NC)C2 = 187
CN(CCCCNC(=O)c1cc2ccccc2[nH]1)[C@@H]1Cc2cccc3[nH]c(=O)n(c23)C1 = 337
N[C@@H]1Cc2cccc3[nH]c(=O)n(c23)C1 = 11800

Moving on to the next molecule.
Inquiry: For the molecule shown here, CCCN[C@@H]1Cc2cccc3c2n(c(=O)n3CCC)C1 , give the reported Ki.
Reply text: 47.9
